Molecular target: T1, purified recombinant MHC II protein, allele DRB1*0701 (human)
T1 construct: bought from Benaroya Research Institute; also called MHC-II DR molecule
Assay: MHC II competition binding assay
Assay Readout: pIC50
Numbers only, as −log10 of the molar value.

INPUT: # pIC50 lookup, item GVHRQWYMHLSKYNVKVGD [cluster 3 wild-type (C3WT) epitope peptide]
OUTPUT: 6.39

Could you now consider this next binder?
INPUT: For the binder shown here, GVHRQWYMHMSKYNVKVGD (synthetic mutated peptide of the lysostaphin catalytic domain; also called L83M) [cluster 3 peptide with Leu83Met] , give the reported pIC50.
OUTPUT: 5.68

src = patent US20210395713A1
